In this section, each of the molecules is paired with its reported MIC95.
Test system: Staphylococcus aureus
Test name: Antibacterial activity against Staphylococcus aureus ATCC 6538 after 24 hrs by microdilution assay
Format: functional
Experimental context: ATCC 6538, 24 h
Parameter: MIC95

# Structure string, Reading
records = [
    ("COc1ccc(C2=C(c3ccc(OC)c(OC)c3)COC2=O)cc1", "> 125 µM"),
    ("O=C1OCC(c2ccc(C(F)(F)F)cc2)=C1c1ccncc1", "> 500 µM"),
    ("CC(=O)OCC1(COC(C)=O)OC(=O)C(c2ccc(Br)cc2)=C1c1ccc(C)cc1", "> 125 µM"),
]

* * *

Tested on: Klebsiella pneumoniae
Test name: Antibacterial activity against Klebsiella pneumoniae HK14368/08 clinical isolate after 24 hrs by microdilution assay
Assay type: functional
Experimental context: HK14368/08, 24 h
Parameter: MIC95

# Molecule, Measured target, Reading
measured = [
    ("Cc1ccc(C2=C(c3cccc(C(F)(F)F)c3)C(=O)OC2)cc1", "Klebsiella pneumoniae", "> 500 µM"),
    ("O=C1OCC(c2ccc(O)c(O)c2)=C1c1ccc(O)cc1", "Klebsiella pneumoniae", "> 500 µM"),
    ("Cc1ccc(C2=C(c3ccc(Br)cc3)C(=O)OC2)cc1", "Klebsiella pneumoniae", "> 1000 µM"),
    ("Cc1ccc(C2=C(c3cccc(Cl)c3)C(=O)OC2)cc1", "Klebsiella pneumoniae", "> 500 µM"),
    ("Cc1ccc(C2=C(c3ccc(Br)cc3)C(=O)OC2CO)cc1 (configuration not stated)", "Klebsiella pneumoniae", "> 500 µM"),
    ("COc1ccc(C2=C(c3ccc(OC)c(OC)c3)C(CO)(CO)OC2=O)cc1", "Klebsiella pneumoniae", "> 500 µM"),
    ("COc1ccc(C2=C(c3ccc(OC)c(OC)c3)C(CO)OC2=O)cc1 (configuration not stated)", "Klebsiella pneumoniae", "> 125 µM"),
]

* * *

Tested on: HepG2
Test name: Cytotoxicity against human HepG2 cells assessed as reduction in cell viability after 48 hrs by ATPlite-based luminescent assay
Experimental context: HepG2, 48 h
In this section, each of the compounds is paired with its reported IC50.
Parameter: IC50

# Structure string, Measured target, Parameter, Reading
measured = [
    ("O=C1OCC(c2ccccc2)=C1c1cccc(C(F)(F)F)c1", "HepG2", "IC50", "> 40 µM"),
    ("Cc1ccc(C2=C(c3ccccc3Cl)C(=O)OC2)cc1", "HepG2", "IC50", "> 40 µM"),
    ("O=C1OCC(c2ccccc2)=C1c1ccc(F)cc1", "HepG2", "IC50", "> 40 µM"),
]

* * *

In this section, each of the compounds is paired with its reported MIC95.
Tested on: Pseudomonas aeruginosa
Test name: Antibacterial activity against Pseudomonas aeruginosa ATCC 9027 after 48 hrs by microdilution assay
Assay type: functional
Experimental context: ATCC 9027, 48 h

# Compound, MIC95
data = [
    ("Cc1ccc(C2=C(c3ccc(F)cc3)C(=O)OC2)cc1", "> 500 µM"),
    ("Cc1ccc(C2=C(c3ccc(Br)cc3)C(=O)OC2CO)cc1 (configuration not stated)", "> 500 µM"),
    ("O=C1OCC(c2ccc(O)c(O)c2)=C1c1ccc(O)cc1", "> 500 µM"),
    ("COc1ccc(C2=C(c3c(Cl)cccc3Cl)C(=O)OC2)cc1", "> 500 µM"),
    ("O=C1OCC(c2ccc(C(F)(F)F)cc2)=C1c1ccncc1", "> 500 µM"),
    ("Cc1ccc(C2=C(c3cccc(Cl)c3)C(=O)OC2)cc1", "> 500 µM"),
    ("CC(=O)OCC1(COC(C)=O)OC(=O)C(c2ccc(Br)cc2)=C1c1ccc(C)cc1", "> 125 µM"),
    ("Cc1ccc(C2=C(c3cccc(C(F)(F)F)c3)C(=O)OC2)cc1", "> 500 µM"),
    ("O=C1OC(CO)(CO)C(c2ccc(Br)cc2)=C1c1cccc(Cl)c1Cl", "> 500 µM"),
    ("COc1ccc(C2=C(c3ccc(OC)c(OC)c3)C(CO)OC2=O)cc1 (configuration not stated)", "> 125 µM"),
    ("O=C1OCC(c2ccc3c(c2)OCO3)=C1c1ccc2c(c1)OCO2", "> 125 µM"),
    ("O=C1OCC(c2ccccc2)=C1c1cccc(C(F)(F)F)c1", "> 500 µM"),
    ("Cc1ccc(C2=C(c3ccc(Br)cc3)C(=O)OC2(CO)CO)cc1", "> 500 µM"),
    ("COc1ccc(C2=C(c3ccc(OC)c(OC)c3)COC2=O)cc1", "> 125 µM"),
    ("COc1cc(OC)c(C2=C(c3ccc(OC)c(OC)c3OC)COC2=O)c(OC)c1", "> 500 µM"),
    ("COc1ccc(C2=C(c3ccc(Br)cc3)C(=O)OC2)cc1", "> 1000 µM"),
    ("O=C1OCC(c2ccccc2)=C1c1ccc(F)cc1", "> 500 µM"),
]
